# Tested on: HCT-116 colon
# experiment: NCI tumour cell line growth inhibition, 48 h
property: TGI

Some solved cases for reference:
CCOC(=O)C12CCC(c3c(C)cccc3C)(O1)C(C(=O)OC)=C2C(=O)OC (stereo unspecified)	> 10 µM
C[n+]1ccc2/c(=C\C#N)c3ccccc3n21	> 100 µM
CC(C)c1ccc(C(c2c(O)c3ccccc3oc2=O)c2c(O)c3ccccc3oc2=O)cc1	33.2 µM

In plain terms, CN(CCCNC(=O)c1cn(C)c2c1ccc1ccccc12)CCCNC(=O)c1cn(C)c2c1ccc1ccccc12 has a documented TGI of 3.12 µM

In plain terms, Cc1nccc2c3ccc(OCc4cn(-c5ccc(Br)cc5)nn4)cc3n(CCCc3ccccc3)c12 has a documented TGI of > 100 µM

In plain terms, COC1=C(OC)C(=O)C(C/C=C/c2c(Cl)nc3sccn23)=C(C)C1=O has a documented TGI of 33.5 µM

In plain terms, NS(=O)(=O)c1ccc(-n2nc(-c3ccccc3)cc2-c2cc(O)ccc2O)cc1 has a documented TGI of > 100 µM

In plain terms, CCOC(OCC)[C@@H]1C[C@@H]2N(O[C@H](OC3CCCC3(c3ccccc3)c3ccccc3)[C@H](OC(C)=O)[C@@]2(CC)Cc2ccc(OC)c(OC)c2)O1 (stereo partly specified) has a documented TGI of > 100 µM

In plain terms, COc1cc2c(cc1OC)-c1c(c3ccc([N+](=O)[O-])cc3c(=O)n1CCCN=[N+]=[N-])C2=O has a documented TGI of > 100 µM

In plain terms, N#C/C(=C\c1ccccc1F)C(=O)c1ccccc1 has a documented TGI of > 100 µM

In plain terms, COc1ccc2[nH]cc(C3(c4c[nH]c5ccc(OC)cc45)C(=O)Nc4ccc(Cl)cc43)c2c1 has a documented TGI of 10.7 µM

In plain terms, CC[C@@]1(O)C(=O)OCc2c1cc1n(c2=O)Cc2cc3cccc(N)c3nc2-1 has a documented TGI of > 100 µM

* * *

# Tested on: SK-MEL-2 melanoma
# experiment: NCI tumour cell line growth inhibition, 48 h
property: TGI

Some solved cases for reference:
CN(C)C[C@@H]1CCn2cc(c3ccccc32)C2=C(C(=O)NC2=O)c2cn(c3ccccc23)CCO1	> 10 µM
CCOP(=O)(OCC)C(NC(c1ccccc1)c1ccccc1)c1ccsc1 (centres undefined)	> 100 µM
COc1c(-c2ccc(F)cc2)oc2c(CC(=O)O)cccc2c1=O	> 100 µM

In plain terms, O=C(O)C1Cc2[nH]c3ccccc3c2C2CCCC12 (centres undefined) has a documented TGI of > 100 µM

* * *

# Tested on: U251 CNS
# experiment: NCI tumour cell line growth inhibition, 48 h
property: TGI

CCOC(=O)c1cc(C2CCN(Cc3ccccc3)C2=O)c(C(=O)/C=C(/C)N)[nH]1 (stereo not drawn)	> 100 µM
C/C(CC(=O)Nc1cccc([N+](=O)[O-])c1)=N/NC(N)=S	> 100 µM

// next item, TGI requested
In plain terms, Clc1ccc2c(c1)CC1C[N+]3=C(CCCCC3)C1=C2 (stereo not drawn) has a documented TGI of > 100 µM

* * *

# Test system: MDA-MB-435
# experiment: NCI tumour cell line growth inhibition, 48 h
property: TGI

Some solved cases for reference:
S=C1C(CCCOCc2ccccc2)C2CCCC23CC2(CCN13)OCCS2 (stereo not drawn)	> 10 µM
CCOP(=O)(OCC)C(NC(c1ccccc1)c1ccccc1)c1ccsc1 (stereo not drawn)	39.7 µM

In plain terms, CC(C)c1ccc(C(c2c(O)c3ccccc3oc2=O)c2c(O)c3ccccc3oc2=O)cc1 has a documented TGI of 39.3 µM

* * *

# System: SR leukemia
# experiment: NCI tumour cell line growth inhibition, 48 h
property: TGI

CCCCCC1CC(C(C)=O)CN1c1ccc(F)cc1 (stereo not drawn)	> 10 µM
O=C(O)C1C2C=CC(O2)C1C(=O)NCc1ccncc1 (stereo not drawn)	> 100 µM
CN(C)c1ccc(/C=N/n2c(CCCCc3n[nH]c(=S)n3/N=C/c3ccc(N(C)C)cc3)n[nH]c2=S)cc1	> 100 µM
O=c1[nH]c(Br)nc2n[nH]nc12	> 100 µM

In plain terms, CCCCCCCC(=O)OC(COC(=O)Cc1ccccc1)COC(=O)C(C)(C)C (stereo not drawn) has a documented TGI of > 100 µM

In plain terms, O=C(O)c1ccccc1/C=N\N(CCO)C1=NCCN1 has a documented TGI of > 100 µM

In plain terms, CCN(CC)CCC(=O)Nc1ccc2sc3ccccc3c(=O)c2n1 has a documented TGI of > 100 µM

In plain terms, CCn1c(=O)c2c3ccc(O)cc3[nH]c2c2ccc(O)cc21 has a documented TGI of > 100 µM

In plain terms, O=C(Nc1ccccc1)c1cc2cc(CCl)ccc2oc1=O has a documented TGI of > 100 µM

In plain terms, Oc1c(Cl)c(Cl)c(O)c(-c2cnc(-c3ncc(-c4c(O)c(Cl)c(Cl)c(O)c4Cl)s3)s2)c1Cl has a documented TGI of > 100 µM

* * *

# System: ACHN renal
# experiment: NCI tumour cell line growth inhibition, 48 h
property: TGI

Lab note: compound Cn1c2ccccc2c2c(=O)n(CCCC(=O)NCCc3cnc[nH]3)c3c(-c4ccccc4)nnn3c21 tested on ACHN renal; recorded TGI was 17.9 µM

Lab note: compound Cc1cc(=O)n2c(cc3cccccc32)n1 tested on ACHN renal; recorded TGI was > 100 µM

Lab note: compound CC(=O)O[C@H]1C(=O)[C@@]2(C)[C@H]([C@H](OC(=O)c3ccccc3)[C@]3(O)C[C@H](OC(=O)[C@H](O)[C@@H](NC(=O)OC(C)(C)C)c4ccco4)C(C)=C1C3(C)C)[C@]1(OC(C)=O)CO[C@@H]1C[C@@H]2O tested on ACHN renal; recorded TGI was > 48.1 µM

Lab note: compound CC(=O)OC(C)(C)C[N+](=O)[O-] tested on ACHN renal; recorded TGI was > 100 µM

Lab note: compound CCCCNP1(NCCCC)=NP(NCCCC)(NCCCC)=NP(NCCCC)(NCCCC)=NP(NCCCC)(NCCCC)=N1 tested on ACHN renal; recorded TGI was > 32.9 µM

Lab note: compound COC1/C=C/OC2(C)Oc3c(C)c(O)c4c(O)c(c(/C=N/N(c5ccccc5)c5ccccc5)c(O)c4c3C2=O)NC(=O)C(C)=C/C=C/C(C)C(O)C(C)C(O)C(C)C(OC(C)=O)C1C (stereo not drawn) tested on ACHN renal; recorded TGI was 7.13 µM

Lab note: compound C/C(CC(=O)Nc1cccc([N+](=O)[O-])c1)=N/NC(N)=S tested on ACHN renal; recorded TGI was > 100 µM

Lab note: compound C=C1CCCC2OC(OC)CCC12 (stereo not drawn) tested on ACHN renal; recorded TGI was > 100 µM

Lab note: compound CN(C)c1ccc2cc3c(cc2c1)Oc1ccccc1N3.[Cl][Zn][Cl] tested on ACHN renal; recorded TGI was 3.22 µM

Lab note: compound Cc1ccc2nc(-c3nccn3C)cc(C(=O)NC(C)CN(C)C)c2c1 (stereo not drawn) tested on ACHN renal; recorded TGI was > 100 µM

Lab note: compound O=c1oc2c(O)c(O)cc3c(=O)oc4c(O)c(O)cc1c4c23 tested on ACHN renal; recorded TGI was > 100 µM

Lab note: compound COc1cccc(C2c3cc4c(cc3OC(NNC(N)=O)C2C)OCO4)c1OC (stereo not drawn) tested on ACHN renal; recorded TGI was > 100 µM

Lab note: compound Cc1nc2c(n1Cc1ccc(F)cc1)C(=O)c1ccccc1C2=O tested on ACHN renal; recorded TGI was > 100 µM

* * *

# Test system: DMS 273 small cell lung
# experiment: NCI tumour cell line growth inhibition, 48 h
Reported TGI by item:

O=S1(=O)OCCOS(=O)(=O)C1(Br)Br	> 100 µM
CN(CCc1ccccn1)/[N+]([O-])=N/O (tested in a mixture with another compound)	> 100 µM

// next item, TGI requested
Lab note: molecule Cc1nc2c(n1Cc1ccc(F)cc1)C(=O)c1ccccc1C2=O tested on DMS 273 small cell lung; recorded TGI was > 100 µM

* * *

# Test system: HL-60(TB) leukemia
# experiment: NCI tumour cell line growth inhibition, 48 h
property: TGI (µM)
Reply with just the number (in µM).

Some solved cases for reference:
CCCc1cn2c(/C=N/N=C(N)N)c(-c3ccc([N+](=O)[O-])cc3)nc2s1	2.52
COc1cc(C(=O)c2cnc(-c3ccc4cc[nH]c4c3)[nH]2)cc(OC)c1OC	0.0535

In plain terms, CC(c1ccccc1)n1c2ccccc2c2c(N)ncnc21 (stereo unspecified) has a documented TGI of 47.8

* * *

Reported TGI by item:
# Tested on: 786-0 renal
# experiment: NCI tumour cell line growth inhibition, 48 h

Lab note: compound Cc1c2c(n3c(nc4ccccc43)c1C#N)NCC2 tested on 786-0 renal; recorded TGI was > 10 µM

Lab note: compound O=C(O)c1ccccc1/C=N\N(CCO)C1=NCCN1 tested on 786-0 renal; recorded TGI was > 100 µM
